Experiment: Stability in Syrian hamster serum assessed as parent compound remaining at 1 uM measured after 15 mins by LC-MS/MS analysis
Assay type: ADME, cell-free, Mesocricetus auratus
Conditions: read-out: Stability

compound	remaining at 0.25 h, 1 µM [%]
CC1CN(C(=O)CC2CCCCC2)CCN1C(=S)Nc1ccc(F)cc1 (stereo not drawn)	117
CC1CN(C(=O)OC(C)(C)C)CCN1C(=S)Nc1ccc(F)cc1 (stereo not drawn)	97.8
CC1CN(C(=O)Cc2ccccc2)CCN1C(=S)Nc1cc(C(F)(F)F)cc(C(F)(F)F)c1 (stereo not drawn)	109

----------
Assay: Selectivity Index, ratio of CC50 for human A549 cells to IC50 for Human adenovirus 5 infected in HEK293beta5 cells coexpressing GFP
Type: toxicity, cell-based
Conditions: read-out: Ratio CC50/IC50
property_measured: selectivity ratio

compound	value_observed
O=C(Cc1ccccc1)N1CCN(C(=O)Nc2ccccc2[N+](=O)[O-])C(c2ccccc2)C1 (configuration not stated)	57.4
CC1CN(C(=O)Cc2ccccc2)CCN1C(=S)Nc1ccc([N+](=O)[O-])cc1 (configuration not stated)	105
CC(C)(C)OC(=O)N1CCN(C(=O)Nc2ccc([N+](=O)[O-])cc2)CC1	43.7
O=C(c1cc2ccccc2o1)N1CCN(C(=O)Nc2ccc([N+](=O)[O-])cc2)C(c2ccccc2)C1 (configuration not stated)	93.5
N#Cc1ccc(NC(=O)N2CCN(C(=O)c3cc4ccccc4o3)CC2c2ccccc2)cc1 (configuration not stated)	53.3
CC1CN(C(=O)Cc2ccccc2)CCN1C(=S)Nc1cc(C(F)(F)F)cc(C(F)(F)F)c1 (configuration not stated)	25.4
O=C(Cc1ccccc1)N1CCN(C(=S)Nc2cc(C(F)(F)F)cc(C(F)(F)F)c2)C(c2ccccc2)C1 (configuration not stated)	149
CC1CN(C(=O)Cc2ccccc2)CCN1C(=S)Nc1ccc(C#N)cc1 (configuration not stated)	38
CC1CN(C(=O)CC2CCCCC2)CCN1C(=S)Nc1ccc(F)cc1 (configuration not stated)	238
CC1CN(C(=O)OC(C)(C)C)CCN1C(=S)Nc1ccc(F)cc1 (configuration not stated)	111
O=C(c1cc2ccccc2o1)N1CCN(C(=O)Nc2cc(C(F)(F)F)ccc2Cl)C(c2ccccc2)C1 (configuration not stated)	116
O=C(CC1CCCCC1)N1CCN(C(=O)Nc2ccccc2[N+](=O)[O-])C(c2ccccc2)C1 (configuration not stated)	80.1

----------
Assay: Cytotoxicity against human A549 cells assessed as reduction in cell viability incubated for 48 hrs by alamarBlue assay
Type: cell-based
Output 1 (yes) for records whose CC50 at 48 h is lower than 70 µM, 0 (no) for records at or above 70 µM.

compound	class_label
O=C(CC1CCCCC1)N1CCN(C(=O)Nc2ccccc2[N+](=O)[O-])C(c2ccccc2)C1 (configuration not stated)	0 (no)
N#Cc1ccc(NC(=S)N2CCN(C(=O)CC3CCCCC3)CC2c2ccccc2)cc1 (configuration not stated)	1 (yes)
CC(C)(C)CC(=O)N1CCN(C(=O)Nc2ccccc2[N+](=O)[O-])C(c2ccccc2)C1 (configuration not stated)	1 (yes)
CC1CN(C(=O)c2cc3ccccc3o2)CCN1C(=S)Nc1ccc(C#N)cc1 (configuration not stated)	1 (yes)
COc1ccc(NC(=S)N2CCN(C(=O)Cc3ccccc3)CC2C)cc1 (configuration not stated)	0 (no)
CC1CN(C(=O)CC2CCCCC2)CCN1C(=S)Nc1ccc(C(F)(F)F)cc1 (configuration not stated)	0 (no)
